Target: human 5-HT6 receptor (Homo sapiens, UniProt P50406)
Construct: host or cells: CHO-K1 cells, stably transfected; membranes prepared in house
Sequence (P50406 whole entry): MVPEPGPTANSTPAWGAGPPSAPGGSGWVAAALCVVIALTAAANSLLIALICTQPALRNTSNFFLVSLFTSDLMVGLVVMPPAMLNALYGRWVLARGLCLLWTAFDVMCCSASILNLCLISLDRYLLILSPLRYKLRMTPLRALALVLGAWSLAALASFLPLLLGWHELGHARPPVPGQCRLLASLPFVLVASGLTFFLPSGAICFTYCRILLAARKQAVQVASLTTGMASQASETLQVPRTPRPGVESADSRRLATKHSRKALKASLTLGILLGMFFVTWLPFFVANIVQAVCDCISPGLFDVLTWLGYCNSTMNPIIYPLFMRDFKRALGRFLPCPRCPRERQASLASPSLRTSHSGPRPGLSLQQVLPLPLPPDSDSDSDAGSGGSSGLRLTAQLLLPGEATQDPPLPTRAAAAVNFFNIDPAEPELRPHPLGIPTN
Assay: Human 5-HT6 Receptor Binding Assay ([3H]LSD displacement, scintillation beads)
Settings: membranes of CHO-K1 cells with recombinant human 5-HT6, 4 nM [3H]LSD; Table 1, class symbols; read-out: h5-HT6 (Ki)
Reported Ki by item:

As a guide, the following entries are already answered.
| Compound | Observation type | Recorded result |
| --- | --- | --- |
| O=S(=O)(c1cccc(C(F)(F)F)c1)c1ccc2c3c(oc2c1)C1(CCOC1)NCC3 (stereo not drawn) [Example 304] | Ki | < 500 nM |
| O=S(=O)(c1ccc2c3c(oc2c1)C1(CCOC1)NCC3)c1cccc(F)c1F (single isomer, unassigned; enantiomer 1) [Example 473] | Ki | < 500 nM |
| O=S(=O)(c1cccc(OCC2CC2)c1)c1ccc2c(c1)OC1CNCCC21 (stereo not drawn) [Example 555] | Ki | < 500 nM |
| O=S(=O)(c1ccc2oc3c(c2c1)CCNC3)c1ccccn1 [Example 353] | Ki | < 500 nM |
| CC(=O)Nc1ccc(S(=O)(=O)c2ccc3c(c2)OC2CNCCC32)cc1 (stereo not drawn) [Example 140] | Ki | < 500 nM |
| O=S(=O)(c1cccc(Cl)c1)c1ccc2c3c(oc2c1)C(C1CCOCC1)NCC3 (stereo not drawn) [Example 500] | Ki | < 500 nM |

Q) Record request: Ki value, item CC1(C)NCCc2c1oc1cc(S(=O)(=O)c3cccc(F)c3)ccc21 [Example 1]
A) < 500 nM

Q) Likewise for Cn1cnc(S(=O)(=O)Oc2ccc3c(c2)OC2CNCCC32)c1 (stereo not drawn) [Example 639] ?
A) > 1000 nM

Q) One more compound: CC(C)Oc1cccc(S(=O)(=O)c2ccc3c4c(oc3c2)C(C)(C(F)F)NCC4)c1 (single isomer, unassigned) [Example 34]
A) < 500 nM

Q) What do you get for [O-][S+](c1ccc2c(c1)OC1CNCCC21)c1c(F)c(F)cc(F)c1F (stereo not drawn) [Example 144] ?
A) > 1000 nM

Q) Now this one: O=S(=O)(Oc1ccc2c(c1)OC1CNCCC21)c1c(Cl)nc2sccn12 (stereo not drawn) [Example 793]
A) < 500 nM

Q) Queued: CC1NCCc2c1oc1cc(S(=O)(=O)c3ccc(F)c(F)c3)ccc21 (stereo not drawn) [Example 238]
A) < 500 nM

Q) Quick one: CC1(C)CNC2(CCOC2)c2oc3cc(S(=O)(=O)c4cncc(Cl)c4)ccc3c21 (stereo not drawn) [Example 456]
A) < 500 nM

Q) Further, for COc1cc(F)cc(S(=O)(=O)c2ccc3c(c2)OC2CNCCC32)c1 (stereo not drawn) [Example 420] ?
A) < 500 nM

Q) Continue with O=S(=O)(Oc1ccc2c(c1)OC1CNCCC21)c1ccc(N2CCOCC2)nc1 (stereo not drawn) [Example 683]
A) 500 to 1000 nM
